# System: PPARg:RXRa IVT, anti-PPARg (NR concentration 270 nM, RXRa partner concentration 90 nM)
# EXPERIMENT: PBM binding z-score (relative to random genomic background probes); higher = stronger binding; sequences stand for … in GC…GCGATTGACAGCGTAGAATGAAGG
Label true when PBM binding z-score is at or above 1; anything below gets false.

CHAIN | CLASS_ASSIGNMENT
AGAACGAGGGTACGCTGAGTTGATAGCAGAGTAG | false
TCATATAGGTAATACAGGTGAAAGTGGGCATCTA | true
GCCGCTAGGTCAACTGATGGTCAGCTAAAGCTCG | true
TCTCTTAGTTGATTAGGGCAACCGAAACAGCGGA | true
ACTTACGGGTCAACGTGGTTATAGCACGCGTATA | true
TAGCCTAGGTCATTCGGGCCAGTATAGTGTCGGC | true
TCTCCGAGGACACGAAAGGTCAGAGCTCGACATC | true
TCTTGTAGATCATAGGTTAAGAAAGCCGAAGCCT | true
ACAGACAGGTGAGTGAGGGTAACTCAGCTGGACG | false
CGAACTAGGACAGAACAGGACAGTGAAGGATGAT | true
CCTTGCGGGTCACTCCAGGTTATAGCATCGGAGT | true
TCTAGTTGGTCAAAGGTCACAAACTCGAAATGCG | true
TCTTGTAGATCAACAGGAGGTGAAGAAAGATCGA | true
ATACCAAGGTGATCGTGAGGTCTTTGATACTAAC | true
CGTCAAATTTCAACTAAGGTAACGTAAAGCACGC | false
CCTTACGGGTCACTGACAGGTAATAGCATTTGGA | true
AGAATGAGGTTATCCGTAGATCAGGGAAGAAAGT | true
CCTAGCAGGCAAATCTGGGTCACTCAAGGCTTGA | true
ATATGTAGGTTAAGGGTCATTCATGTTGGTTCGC | true
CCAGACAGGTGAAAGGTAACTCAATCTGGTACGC | true
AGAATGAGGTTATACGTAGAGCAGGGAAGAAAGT | true
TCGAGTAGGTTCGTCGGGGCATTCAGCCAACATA | false
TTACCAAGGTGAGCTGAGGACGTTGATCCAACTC | true
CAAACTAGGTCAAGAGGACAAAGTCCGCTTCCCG | true
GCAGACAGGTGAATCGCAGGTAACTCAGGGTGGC | false
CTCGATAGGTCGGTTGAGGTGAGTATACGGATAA | false
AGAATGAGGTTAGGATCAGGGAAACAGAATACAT | true
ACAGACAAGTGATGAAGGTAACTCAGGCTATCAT | false

* * *

# Tested on: RARb:RXRa (NR concentration 270 nM, RXRa partner concentration 90 nM)
# EXPERIMENT: PBM binding z-score (relative to random genomic background probes); higher = stronger binding; sequences stand for … in GC…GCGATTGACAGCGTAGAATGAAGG

CHAIN | TARGET_SYSTEM | PBM binding z-score
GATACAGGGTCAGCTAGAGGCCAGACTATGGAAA | RARb:RXRa (NR concentration 270 nM, RXRa partner concentration 90 nM) | 3.97
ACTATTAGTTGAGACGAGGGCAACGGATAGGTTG | RARb:RXRa (NR concentration 270 nM, RXRa partner concentration 90 nM) | 0.843
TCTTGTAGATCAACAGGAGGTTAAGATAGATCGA | RARb:RXRa (NR concentration 270 nM, RXRa partner concentration 90 nM) | 0.506
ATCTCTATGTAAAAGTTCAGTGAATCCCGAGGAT | RARb:RXRa (NR concentration 270 nM, RXRa partner concentration 90 nM) | 2.23
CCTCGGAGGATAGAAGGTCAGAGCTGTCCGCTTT | RARb:RXRa (NR concentration 270 nM, RXRa partner concentration 90 nM) | 2.29
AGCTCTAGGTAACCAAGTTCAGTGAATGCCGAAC | RARb:RXRa (NR concentration 270 nM, RXRa partner concentration 90 nM) | 0.793
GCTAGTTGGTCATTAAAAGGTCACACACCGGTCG | RARb:RXRa (NR concentration 270 nM, RXRa partner concentration 90 nM) | 4.4
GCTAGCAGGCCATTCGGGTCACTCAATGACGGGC | RARb:RXRa (NR concentration 270 nM, RXRa partner concentration 90 nM) | 1.96
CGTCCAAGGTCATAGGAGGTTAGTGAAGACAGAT | RARb:RXRa (NR concentration 270 nM, RXRa partner concentration 90 nM) | 5.06
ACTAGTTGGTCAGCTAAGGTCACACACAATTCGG | RARb:RXRa (NR concentration 270 nM, RXRa partner concentration 90 nM) | 4
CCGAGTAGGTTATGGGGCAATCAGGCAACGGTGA | RARb:RXRa (NR concentration 270 nM, RXRa partner concentration 90 nM) | 1.11
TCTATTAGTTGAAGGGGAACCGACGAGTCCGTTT | RARb:RXRa (NR concentration 270 nM, RXRa partner concentration 90 nM) | 0.752
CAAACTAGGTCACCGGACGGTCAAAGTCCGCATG | RARb:RXRa (NR concentration 270 nM, RXRa partner concentration 90 nM) | 4.7
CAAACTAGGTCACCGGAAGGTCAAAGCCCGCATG | RARb:RXRa (NR concentration 270 nM, RXRa partner concentration 90 nM) | 5.32
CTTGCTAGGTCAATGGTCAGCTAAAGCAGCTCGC | RARb:RXRa (NR concentration 270 nM, RXRa partner concentration 90 nM) | 3.79
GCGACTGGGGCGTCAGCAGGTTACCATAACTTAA | RARb:RXRa (NR concentration 270 nM, RXRa partner concentration 90 nM) | 0.327
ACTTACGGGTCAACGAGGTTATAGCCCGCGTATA | RARb:RXRa (NR concentration 270 nM, RXRa partner concentration 90 nM) | 4.03
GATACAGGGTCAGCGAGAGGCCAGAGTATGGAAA | RARb:RXRa (NR concentration 270 nM, RXRa partner concentration 90 nM) | 4.26
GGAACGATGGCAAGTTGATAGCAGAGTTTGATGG | RARb:RXRa (NR concentration 270 nM, RXRa partner concentration 90 nM) | -0.496
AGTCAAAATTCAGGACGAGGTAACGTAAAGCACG | RARb:RXRa (NR concentration 270 nM, RXRa partner concentration 90 nM) | 0.118
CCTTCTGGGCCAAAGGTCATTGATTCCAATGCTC | RARb:RXRa (NR concentration 270 nM, RXRa partner concentration 90 nM) | 4.44
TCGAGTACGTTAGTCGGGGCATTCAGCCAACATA | RARb:RXRa (NR concentration 270 nM, RXRa partner concentration 90 nM) | 0.019
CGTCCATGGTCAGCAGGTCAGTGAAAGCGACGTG | RARb:RXRa (NR concentration 270 nM, RXRa partner concentration 90 nM) | 2.28
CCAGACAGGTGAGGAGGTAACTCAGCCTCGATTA | RARb:RXRa (NR concentration 270 nM, RXRa partner concentration 90 nM) | 0.524
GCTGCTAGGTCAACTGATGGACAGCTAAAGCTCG | RARb:RXRa (NR concentration 270 nM, RXRa partner concentration 90 nM) | 4.12
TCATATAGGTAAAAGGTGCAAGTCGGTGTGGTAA | RARb:RXRa (NR concentration 270 nM, RXRa partner concentration 90 nM) | 0.917
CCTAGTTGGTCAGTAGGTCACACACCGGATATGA | RARb:RXRa (NR concentration 270 nM, RXRa partner concentration 90 nM) | 2.91
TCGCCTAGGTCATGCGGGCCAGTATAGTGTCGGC | RARb:RXRa (NR concentration 270 nM, RXRa partner concentration 90 nM) | 3.87
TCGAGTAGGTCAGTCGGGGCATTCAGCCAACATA | RARb:RXRa (NR concentration 270 nM, RXRa partner concentration 90 nM) | 3.03
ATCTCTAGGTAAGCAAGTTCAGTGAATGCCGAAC | RARb:RXRa (NR concentration 270 nM, RXRa partner concentration 90 nM) | 0.858
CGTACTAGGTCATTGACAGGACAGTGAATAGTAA | RARb:RXRa (NR concentration 270 nM, RXRa partner concentration 90 nM) | 3.67
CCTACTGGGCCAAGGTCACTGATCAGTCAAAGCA | RARb:RXRa (NR concentration 270 nM, RXRa partner concentration 90 nM) | 3.73
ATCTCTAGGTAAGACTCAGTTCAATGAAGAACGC | RARb:RXRa (NR concentration 270 nM, RXRa partner concentration 90 nM) | 0.797
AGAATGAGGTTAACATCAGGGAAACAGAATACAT | RARb:RXRa (NR concentration 270 nM, RXRa partner concentration 90 nM) | 2.32
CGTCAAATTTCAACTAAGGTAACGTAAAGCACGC | RARb:RXRa (NR concentration 270 nM, RXRa partner concentration 90 nM) | 0.603
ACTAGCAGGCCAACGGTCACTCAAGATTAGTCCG | RARb:RXRa (NR concentration 270 nM, RXRa partner concentration 90 nM) | 1.64
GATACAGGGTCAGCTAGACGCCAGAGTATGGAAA | RARb:RXRa (NR concentration 270 nM, RXRa partner concentration 90 nM) | 3.9
